- System: M14 melanoma
- assay_method_text: NCI-60 one-dose screen, 48 h (100 = growth as untreated, 0 = no growth, -100 = all killed)
- experimental_context: 10 µM unless noted
Compounds without any hit were thinned out: in the full panel of roughly 83,000, 20% have a hit.
experimental_readout: growth (%)
One number for each entry, in %.

State recorded growth for all listed molecules.
1. O=C1c2ccccc2C(=O)N1/N=C/c1ccc2c(c1)OCO2
2. O=C(O)c1cc(C(=O)O)cc([N+](=O)[O-])c1
3. Cc1cc(C)c(N)c(Br)c1
4. Cc1c(Cl)cccc1NCN1C(=O)c2ccccc2C1=O
5. O=C(Cc1cccc2ccccc12)N/N=C/c1ccc2c(c1)CCC2
6. CC(C)(C)c1cc(NC(=O)Cc2ccc(-c3cnc4cc(-c5cnn(CCN6CCOCC6)c5)ccc4n3)cc2)no1
7. NCCSC(C[N+](=O)[O-])c1ccccc1Cl (configuration not stated)

[99.7, 99.8, 103, 110, 77.9, 15, 74.4]

* * *

- Tested on: SR leukemia
- assay_method_text: NCI-60 one-dose screen, 48 h (100 = growth as untreated, 0 = no growth, -100 = all killed)
- experimental_context: 10 µM unless noted
Compounds without any hit were thinned out: in the full panel of roughly 83,000, 20% have a hit.
experimental_readout: growth (%)
Numbers only, in %.

Completed entries (count: 4):
[[record]]
input_smiles = "Cc1ccc(-c2noc(C)n2)cc1"
experimental_readout = "growth"
test_result = 90.7

[[record]]
input_smiles = "CC[N+](CC)(CC(=O)Nc1c(C)cccc1C)Cc1ccccc1"
experimental_readout = "growth"
test_result = 92.4

[[record]]
input_smiles = "NC(=S)N/N=C(\\c1ccc(Br)cc1)C1CC1"
experimental_readout = "growth"
test_result = 87.6

[[record]]
input_smiles = "CCOC(=O)c1sc(N)nc1-c1ccccc1"
experimental_readout = "growth"
test_result = 90.2


Switching to the query record.
State its growth for this compound: CC12CCC(CC1)C(C)(C)O2
88.8

* * *

- Test system: SF-295 CNS
- assay_method_text: NCI-60 one-dose screen, 48 h (100 = growth as untreated, 0 = no growth, -100 = all killed)
- experimental_context: 10 µM unless noted
This is part of a sample that, as a whole, favours compounds with a hit. Of some 83,000 tested, about 20% had one in any assay.
experimental_readout: growth (%)
One number for each entry, in %.

Completed entries (count: 3):
[[record]]
input_smiles = "Nc1ccc2ccc(N)cc2c1"
value_units = "%"
test_result = 72.1

[[record]]
input_smiles = "Oc1c(CN2CCCCC2)ccc2cccnc12"
value_units = "%"
test_result = 37.1

[[record]]
input_smiles = "Cc1ccc(NCSc2ccc(Cl)cc2)cc1"
value_units = "%"
test_result = 85.8


Switching to the query record.
State its growth for this compound: NC(=S)NS(=O)(=O)c1ccc(N)cc1
94.7

* * *

- Tested on: RXF 393 renal
- assay_method_text: NCI-60 one-dose screen, 48 h (100 = growth as untreated, 0 = no growth, -100 = all killed)
- experimental_context: 10 µM unless noted
The panel holds about 83,000 compounds, 20% with a hit somewhere; the sample as a whole holds those more often.
Please respond with reported growth for every item in the list.
One number for each entry, in %.

Completed entries (count: 2):
[[record]]
input_smiles = "Cc1ccc(-c2noc(C)n2)cc1"
test_result = 94.2

[[record]]
input_smiles = "CC(=O)C(/C=N/C(N)=O)=C(/C)O"
test_result = 114


Switching to the query record.
State its growth for this compound: Cc1cc(=O)[nH]c(O)c1C#N
106
